method.notes: Human liver microsomal stability of compound in microsomal protein, PBS buffer pH 7.4, NADPH, glucose-6-phosphate and glucose-6-phosphate dehydrogenase media. Aliquotes were taken at 5 time points and after stopping the reaction, supernatants were analyzed using HPLC coupled with a tandem mass spectrometer. The elimination constant, half-life, and intrinsic clearance are determined as results using linear regression analysis. The assay has been performed by Enamine biological services, Bienta Ltd.The protocol is publicly available: dx.doi.org/10.17504/protocols.io.5qpvokdb9l4o/v1
Assay type: ADME, microsomes, Microsome
applied.conditions: microsomes
Tick true (1) if T1/2 is 40 min or greater. Tick false (0) if T1/2 is less than 40 min.

Entry `CC(C)[C@@H](Nc1ncnc2[nH]c(-c3cnn(C)c3C#N)cc12)c1ccc2c(c1)S(=O)(=O)CCC2` : is its T1/2 no less than 40 min?
false (0)

Entry `CC(C)[C@@H](Nc1ncnc2[nH]c(-c3cnn(C)c3C#N)cc12)c1ccc2c(c1)NC(=O)CO2` : is its T1/2 no less than 40 min?
false (0)

Entry `CC(C)[C@@H](Nc1ncnc2[nH]c(-c3cnn(CC(N)=O)c3)cc12)c1ccc2c(c1)S(=O)(=O)CCC2` : is its T1/2 no less than 40 min?
false (0)

Entry `CC(C)[C@@H](Nc1ncnc2[nH]c(-c3cnn(CC(N)=O)c3)cc12)c1ccc2c(n1)OCCO2` : is its T1/2 no less than 40 min?
true (1)

Entry `CC(C)[C@@H](Nc1ncnc2[nH]c(-c3cnn(CC(=O)N(C)C)c3)cc12)c1ccc2c(c1)OCCO2` : is its T1/2 no less than 40 min?
false (0)

Entry `CC(C)[C@@H](Nc1ncnc2[nH]ccc12)c1ccc2c(c1)S(=O)(=O)CCC2` : is its T1/2 no less than 40 min?
true (1)

Entry `CC(C)[C@@H](Nc1ncnc2[nH]c(-c3cnn(C)c3C#N)cc12)c1ccc2c(n1)NC(=O)CO2` : is its T1/2 no less than 40 min?
false (0)

* * *

Kindly supply the reported Remaining (without cofactor) values for the records listed here.
method.notes: Mouse liver microsomal stability of compound in microsomal protein, PBS buffer pH 7.4, NADPH, glucose-6-phosphate and glucose-6-phosphate dehydrogenase media. Aliquotes were taken at 5 time points and after stopping the reaction, supernatants were analyzed using HPLC coupled with a tandem mass spectrometer. The elimination constant, half-life, and intrinsic clearance are determined as results using linear regression analysis. The assay has been performed by Enamine biological services, Bienta Ltd.The protocol is publicly available: dx.doi.org/10.17504/protocols.io.5qpvokdb9l4o/v1
Type: ADME, microsomes, Microsome
applied.conditions: microsomes
Note to self: number, then unit, no commentary.

Bench note: what Remaining (without cofactor) did `COc1ccc([C@@H](CC(=O)O)NC(=O)c2ncnc3[nH]ccc23)cc1` show?
96%

Bench note: what Remaining (without cofactor) did `CC(C)[C@H](Nc1ncnc2[nH]c(-c3cnn(C)c3C#N)cc12)c1ccc2c(n1)OCCO2` show?
96%

Bench note: what Remaining (without cofactor) did `CC(C)[C@@H](Nc1ncnc2[nH]c(C(=O)N[C@H]3CCN(C)C3)cc12)c1ccc2c(c1)S(=O)(=O)CCC2` show?
92%

Bench note: what Remaining (without cofactor) did COc1ccc([C@@H](NC(=O)c2[nH]cnc3nccc2-3)C(C)c2nnn[nH]2)cc1 (some centres not stated) show?
92%

Bench note: what Remaining (without cofactor) did `CC(C)[C@H](Nc1ncnc2[nH]c(-c3cnn(C)c3C#N)cc12)c1ccc2c(c1)OCCO2` show?
113%

Bench note: what Remaining (without cofactor) did `CNC(=O)c1cccc(-c2cc3c(N[C@@H](c4ccc5c(c4)S(=O)(=O)CCC5)C(C)C)ncnc3[nH]2)c1` show?
101%

Bench note: what Remaining (without cofactor) did `C[C@@H](C(=O)O)[C@@H](NC(=O)c1ncnc2[nH]ccc12)c1ccc(Br)cc1` show?
109%

Bench note: what Remaining (without cofactor) did `CNC(=O)c1cccc(-c2cc3c(N[C@H](c4ccc5c(c4)S(=O)(=O)CCC5)C(C)C)ncnc3[nH]2)c1` show?
106%

Bench note: what Remaining (without cofactor) did `CC(C)(C)[C@H](Nc1ncnc2[nH]c(-c3cnn(CC(N)=O)c3)cc12)c1ccc2c(n1)OCCO2` show?
116%

Bench note: what Remaining (without cofactor) did `CC(C)[C@H](Nc1ncnc2[nH]c(-c3cnn(CC(=O)N(C)C)c3)cc12)c1ccc2c(c1)S(=O)(=O)CCC2` show?
98%

Bench note: what Remaining (without cofactor) did `CC(C)[C@@H](Nc1ncnc2[nH]cc(C(N)=O)c12)c1ccc2c(c1)OCCO2` show?
98%

Bench note: what Remaining (without cofactor) did `CCNC(=O)c1cc2c(N[C@@H](c3ccc4c(c3)S(=O)(=O)CCO4)C(C)C)ncnc2[nH]1` show?
99%

Bench note: what Remaining (without cofactor) did `CC(C)[C@H](Nc1ncnc2[nH]c(-c3cnn(C)c3)cc12)c1ccc2c(c1)S(=O)(=O)CCC2` show?
98%

Bench note: what Remaining (without cofactor) did `CC(C)[C@H](Nc1ncnc2[nH]c(-c3cnn(C)c3C#N)cc12)c1ccc2c(n1)NC(=O)CO2` show?
85%

Bench note: what Remaining (without cofactor) did `CNC(=O)Cn1cc(-c2cc3c(N[C@@H](c4ccc5c(c4)OCCO5)C(C)C)ncnc3[nH]2)cn1` show?
90%

Bench note: what Remaining (without cofactor) did `CC(C)[C@@H](Nc1ncnc2[nH]c(-c3cnn(C)c3)cc12)c1ccc2c(c1)S(=O)(=O)CCC2` show?
102%

Bench note: what Remaining (without cofactor) did `Cc1nn(C)cc1-c1cc2c(N[C@@H](c3ccc4c(c3)S(=O)(=O)CCC4)C(C)C)ncnc2[nH]1` show?
103%

* * *

method.notes: Mouse liver microsomal stability of compound in microsomal protein, PBS buffer pH 7.4, NADPH, glucose-6-phosphate and glucose-6-phosphate dehydrogenase media. Aliquotes were taken at 5 time points and after stopping the reaction, supernatants were analyzed using HPLC coupled with a tandem mass spectrometer. The elimination constant, half-life, and intrinsic clearance are determined as results using linear regression analysis. The assay has been performed by Enamine biological services, Bienta Ltd.The protocol is publicly available: dx.doi.org/10.17504/protocols.io.5qpvokdb9l4o/v1
Format: ADME, microsomes, Microsome
applied.conditions: microsomes
Threshold 20%: Remaining strictly smaller gives Met, otherwise Not met.

Record O=C(Nc1ccccc1)Nc1ccc(C(=O)NC2c3cccc(O)c3CC2C(=O)O)cc1 (centres undefined) : is its Remaining strictly below 20%?
Not met

Record `COc1ccc2c(c1)CCN(c1ncnc3[nH]ccc13)[C@H]2C(C)C` : is its Remaining strictly below 20%?
Met

Record `CNCc1cc(-c2cc3c(N[C@H](c4ccc5c(c4)S(=O)(=O)CCC5)C(C)C)ncnc3[nH]2)co1` : is its Remaining strictly below 20%?
Not met

Record `CNC(=O)c1cc2c(N[C@@H](c3ccc4c(c3)OCCO4)C(C)C)ncnc2[nH]1` : is its Remaining strictly below 20%?
Not met

Record `CC(C)[C@H](Nc1ncnc2[nH]c(-c3cnn(C)c3C#N)cc12)c1ccc2c(n1)NC(=O)CO2` : is its Remaining strictly below 20%?
Met

Record `CC(C)[C@@H](Nc1ncnc2[nH]c(-c3cnn(C)c3)cc12)c1ccc2c(c1)S(=O)(=O)NCC2` : is its Remaining strictly below 20%?
Not met

Record `CNC(=O)c1c[nH]c2ncnc(N[C@@H](c3ccc4c(c3)NC(=O)CO4)C(C)C)c12` : is its Remaining strictly below 20%?
Met

Record `CC(C)[C@@H](Nc1ncnc2[nH]c(C(=O)N[C@@H]3CCN(C)C3)cc12)c1ccc2c(c1)S(=O)(=O)CCC2` : is its Remaining strictly below 20%?
Not met

* * *

method.notes: Human liver microsomal stability of compound in microsomal protein, PBS buffer pH 7.4, NADPH, glucose-6-phosphate and glucose-6-phosphate dehydrogenase media. Aliquotes were taken at 5 time points and after stopping the reaction, supernatants were analyzed using HPLC coupled with a tandem mass spectrometer. The elimination constant, half-life, and intrinsic clearance are determined as results using linear regression analysis. The assay has been performed by Enamine biological services, Bienta Ltd.The protocol is publicly available: dx.doi.org/10.17504/protocols.io.5qpvokdb9l4o/v1
Type: ADME, microsomes, Microsome
applied.conditions: liver microsomes
measurement.label: microsomal CLint (µL/min/mg)
All answers are understood in µL/min/mg, so give the number only.

Bench note: what microsomal CLint did O=C(Nc1ccccc1)Nc1ccc(C(=O)NC2c3cccc(O)c3CC2C(=O)O)cc1 (configuration not stated) show?
9

Bench note: what microsomal CLint did `CC(C)[C@@H](Nc1ncnc2[nH]c(-c3cnn(CC(N)=O)c3)cc12)c1ccc2c(c1)NC(=O)CO2` show?
17

Bench note: what microsomal CLint did `CC(C)(C)[C@H](Nc1ncnc2[nH]c(-c3cnn(CC(N)=O)c3)cc12)c1ccc2c(n1)OCCO2` show?
27

Bench note: what microsomal CLint did `CC(C)[C@@H](Nc1ncnc2[nH]c(-c3ccc4cncn4c3)cc12)c1ccc2c(c1)S(=O)(=O)CCC2` show?
210

Bench note: what microsomal CLint did `CC(C)[C@@H](Nc1ncnc2[nH]c(-c3cnn(C)c3)cc12)c1ccc2c(c1)S(=O)(=O)NCC2` show?
120

Bench note: what microsomal CLint did `CNC(=O)c1cccc(-c2cc3c(N[C@H](c4ccc5c(c4)S(=O)(=O)CCC5)C(C)C)ncnc3[nH]2)c1` show?
746

Bench note: what microsomal CLint did `CCNC(=O)c1cc2c(N[C@H](c3ccc4c(c3)S(=O)(=O)CCC4)C(C)C)ncnc2[nH]1` show?
109

Bench note: what microsomal CLint did `CC(C)[C@@H](Nc1ncnc2[nH]c(-c3cnn(CC(N)=O)c3)cc12)c1ccc2c(c1)S(=O)(=O)CCC2` show?
116

Bench note: what microsomal CLint did `CC(C)[C@@H](Nc1ncnc2[nH]c(C(=O)N[C@@H]3CCN(C)C3)cc12)c1ccc2c(c1)S(=O)(=O)CCC2` show?
20

Bench note: what microsomal CLint did `CC(C)(C)[C@@H](Nc1ncnc2[nH]c(-c3cnn(CC(N)=O)c3)cc12)c1ccc2c(c1)OCCO2` show?
133

Bench note: what microsomal CLint did `CC(C)[C@H](Nc1ncnc2[nH]ccc12)c1ccc2c(c1)S(=O)(=O)CCC2` show?
57

Bench note: what microsomal CLint did `CC(C)[C@@H](Nc1ncnc2[nH]ccc12)c1ccc2c(c1)NC(=O)CO2` show?
21

Bench note: what microsomal CLint did `CCNC(=O)c1cc2c(N[C@H](c3ccc4c(c3)OCCO4)C(C)C)ncnc2[nH]1` show?
67

Bench note: what microsomal CLint did `CC(C)[C@H](Nc1ncnc2[nH]ccc12)c1ccc2c(c1)NC(=O)CO2` show?
10

Bench note: what microsomal CLint did `CC(C)[C@H](Nc1ncnc2[nH]c(C(=O)N[C@H]3CCN(C)C3)cc12)c1ccc2c(c1)S(=O)(=O)CCC2` show?
11

Bench note: what microsomal CLint did `CC(C)[C@@H](Nc1ncnc2[nH]c(-c3cnn(CCC(N)=O)c3)cc12)c1ccc2c(c1)OCCO2` show?
99

Bench note: what microsomal CLint did `CCNC(=O)c1cc2c(N[C@@H](c3ccc4c(c3)S(=O)(=O)NCC4)C(C)C)ncnc2[nH]1` show?
85
